Notes on pKi obtained with CDK9/cyclin T1 (Homo sapiens, UniProt P50750).
Sequence (O60563 whole entry): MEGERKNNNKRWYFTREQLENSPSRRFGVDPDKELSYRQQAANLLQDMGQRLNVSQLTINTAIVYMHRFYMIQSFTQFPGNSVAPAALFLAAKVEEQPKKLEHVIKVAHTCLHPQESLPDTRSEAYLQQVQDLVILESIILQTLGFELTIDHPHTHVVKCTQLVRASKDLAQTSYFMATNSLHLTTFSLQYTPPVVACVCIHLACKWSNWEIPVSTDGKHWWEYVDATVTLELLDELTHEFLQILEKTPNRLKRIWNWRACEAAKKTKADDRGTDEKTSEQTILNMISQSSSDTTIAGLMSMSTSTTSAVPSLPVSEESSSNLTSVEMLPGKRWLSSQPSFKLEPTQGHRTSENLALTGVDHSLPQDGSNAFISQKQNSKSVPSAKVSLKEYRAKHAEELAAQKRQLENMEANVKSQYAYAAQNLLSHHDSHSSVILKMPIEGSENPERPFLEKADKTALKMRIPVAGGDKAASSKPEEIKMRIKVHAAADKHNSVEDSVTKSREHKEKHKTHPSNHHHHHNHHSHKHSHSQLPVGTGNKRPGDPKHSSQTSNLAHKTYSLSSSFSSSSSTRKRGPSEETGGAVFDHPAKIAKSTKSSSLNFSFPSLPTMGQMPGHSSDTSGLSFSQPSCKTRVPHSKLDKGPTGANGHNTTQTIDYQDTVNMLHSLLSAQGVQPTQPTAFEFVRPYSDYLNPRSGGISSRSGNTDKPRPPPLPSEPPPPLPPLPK
Sequence (P50750 whole entry): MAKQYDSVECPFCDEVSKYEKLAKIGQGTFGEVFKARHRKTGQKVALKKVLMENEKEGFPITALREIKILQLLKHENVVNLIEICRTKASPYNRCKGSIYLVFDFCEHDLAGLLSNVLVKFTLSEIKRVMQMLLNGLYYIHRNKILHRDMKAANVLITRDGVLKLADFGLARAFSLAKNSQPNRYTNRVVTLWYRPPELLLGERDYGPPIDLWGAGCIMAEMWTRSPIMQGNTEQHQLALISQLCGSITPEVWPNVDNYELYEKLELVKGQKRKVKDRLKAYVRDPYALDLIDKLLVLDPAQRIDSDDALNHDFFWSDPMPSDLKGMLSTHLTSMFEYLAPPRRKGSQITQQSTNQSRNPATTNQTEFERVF
One number for each entry, as −log10 of the molar value.

# annotated cases, reported pKi shown
compound_structure: CNc1nc(-c2ccccc2)c(-c2ccnc(Nc3cccc([N+](=O)[O-])c3)n2)s1
pKi: 5.01
--
compound_structure: CNc1nc(C)c(-c2nc(Nc3ccc(O)cc3)ncc2C#N)s1
pKi: 7.59
--
compound_structure: CC[C@@H](CO)Nc1nc(Cc2ccc(-c3ccccn3)cc2)c2ncn(C(C)C)c2n1
pKi: 6.96
--
compound_structure: CNc1nc(C)c(-c2nc(Nc3ccc(S(N)(=O)=O)cc3)ncc2C#N)s1
pKi: 8.10
--
compound_structure: CNc1nc(C)c(-c2nc(Nc3ccc(C)c(S(=O)(=O)N4CCOCC4)c3)ncc2C#N)s1
pKi: 7.66
--
compound_structure: CNc1nc(C)c(-c2nc(Nc3ccc(S(=O)(=O)N4CCOCC4)cc3)ncc2C#N)s1
pKi: 8.10
--
compound_structure: CNc1nc(C)c(-c2nc(Nc3cccc(C(=O)N4CCOCC4)c3)ncc2C#N)s1
pKi: 7.37

With those in mind, consider the next compound.
Form field: pKi recorded for CNc1nc(-c2ccccc2)c(-c2ccnc(Nc3ccc(C)c(S(=O)(=O)N4CCOCC4)c3)n2)s1 with CDK9/cyclin T1 (Homo sapiens, UniProt P50750) (enter value)
5.21

Numbers sourced from ChEMBL document CHEMBL2311463.
